Data credit: the METLIN SMRT retention time set (Domingo-Almenara et al. 2019)

# assayComment: gradient 5% acetonitrile 3 min, to 50% in 2 min, to 85% in 15 min, held 3 min, 100 µL/min
# runConditions: column: Zorbax Extend-C18 2.1 x 50 mm; eluents: water / acetonitrile, 0.1% formic acid
The threshold is 800 s. Values of RP-LC retention time beneath it are tagged Y; values meeting or exceeding it are tagged N.

Some entries whose results are on file:
molecule	cat
CCOC(=O)c1ccc2[nH]c(-c3ccc(S(=O)(=O)F)cc3)cc(=O)c2c1	N
Cc1ccc2cc(CCC(=O)NCCN3CCOCC3)c(=O)[nH]c2c1	Y
CCOc1cccc(-c2noc(Cc3nnc(-c4ccc(F)cc4)o3)n2)c1	N
Cc1cc(C)cc(C(=O)N2CCCC(C(=O)NCCc3cccs3)C2)c1 (centres undefined)	N
CCC(=O)c1cn(CC(=O)NC(C)c2ccc3c(c2)OCCCO3)c2ccccc12 (centres undefined)	N

Query: Please let me know if "Nc1nc(SCC(=O)c2ccc3c(c2)OCCO3)n[nH]1" shows RP-LC retention time below 800 s.
Result: Y

Query: Please let me know if CCc1ccc(N2C(=O)C3N=NN(Cc4nc(-c5cccc(Br)c5)no4)C3C2=O)cc1 (centres undefined) shows RP-LC retention time below 800 s.
Result: N

Query: Please let me know if "Cn1nc(-c2nnc(-c3ccccc3Cl)o2)c2c1CCN(C(=O)NC1CCCCC1)C2" shows RP-LC retention time below 800 s.
Result: N

----------
# assayComment: gradient 5% acetonitrile 3 min, to 50% in 2 min, to 85% in 15 min, held 3 min, 100 µL/min
# runConditions: column: Zorbax Extend-C18 2.1 x 50 mm; eluents: water / acetonitrile, 0.1% formic acid
Response key: fulfilled means RP-LC retention time >= 900 s; not fulfilled means RP-LC retention time < 900 s.

molecule	cat
CCN1CCCn2cc(S(=O)(=O)N3CCN(c4ccccc4)CC3)cc2C1=O	not fulfilled
CCOc1ccc(N2C(=O)C3N=NN(Cc4nc(-c5ccc(Cl)cc5)no4)C3C2=O)cc1 (stereo not given)	not fulfilled
CC1CN(c2nc(Nc3ccc(Cl)cc3)c3cnn(C)c3n2)CC(C)O1 (stereo not given)	fulfilled
O=S(=O)(Nc1ccc(Nc2ccc(-n3cccn3)nn2)cc1)c1ccc(F)cc1F	not fulfilled
O=C(c1ccccc1F)N1CCC2(C1)C(=O)Nc1ccccc12 (stereo not given)	not fulfilled

Query: Is reported RP-LC retention time greater than or equal to 900 s here: "CC1CCN(CC2CCN(S(=O)(=O)c3cccc(Cl)c3)CC2)CC1"
Result: not fulfilled

Query: Is reported RP-LC retention time greater than or equal to 900 s here: "CC(=O)Nc1ccc(S(=O)(=O)NCc2nc(C)no2)cc1"
Result: not fulfilled

Query: Is reported RP-LC retention time greater than or equal to 900 s here: "CC(C)CC(=O)N1CCc2c(c(-c3nnc(-c4ccccc4Cl)o3)nn2C)C1"
Result: not fulfilled

Query: Is reported RP-LC retention time greater than or equal to 900 s here: COCC1(O)CCOC2(CCN(Cc3cccc(Cl)c3)CC2)C1 (stereo not given)
Result: not fulfilled

Query: Is reported RP-LC retention time greater than or equal to 900 s here: "COc1ccc(-c2cc3n(n2)CCCN(S(=O)(=O)CCc2ccccc2)C3)cc1"
Result: fulfilled

Query: Is reported RP-LC retention time greater than or equal to 900 s here: "CCCCN1CCN(c2ccc(-c3csc(S(=O)(=O)N4CCCCC4)c3)nn2)CC1"
Result: not fulfilled

Query: Is reported RP-LC retention time greater than or equal to 900 s here: "CC(C)c1ccc(NC(=O)Cn2cccc2-c2nnc(C3CCC3)o2)cc1"
Result: fulfilled

Query: Is reported RP-LC retention time greater than or equal to 900 s here: COc1cc(NC(=O)C(C)Oc2ccc(=O)n(-c3ccc(F)cc3)n2)cc(OC)c1 (stereo not given)
Result: not fulfilled

Query: Is reported RP-LC retention time greater than or equal to 900 s here: "Cc1c(F)cccc1NC(=O)N1CC(Cc2nncn2C(C)C)C1"
Result: not fulfilled

Query: Is reported RP-LC retention time greater than or equal to 900 s here: "Fc1ccc(-c2noc(Cc3nnc(-c4cc(F)cc(F)c4)o3)n2)cc1"
Result: fulfilled
